test system: MDA-MB-468 breast; test: NCI tumour cell line growth inhibition, 48 h
Overview of recorded TGI for various compounds

COMPOUND	RELATION_QUALIFIER	TGI [µM]
CNCCn1c(=O)c2cc(OC)c(OC)cc2c2cnc3cc4c(cc3c21)OCO4	<	0.0177
COc1cc(/C=C2\CCC/C(=C\c3ccc(OCC4CO4)c(OC)c3)C2=O)ccc1OCC1CO1 (configuration not stated)	=	4.85
C=CCn1c(SCC(=O)Nc2ccc(C(=O)/C=C/c3cc(OC)c(OC)c(OC)c3)cc2)nnc1-c1ccc(OC)cc1	=	2.57
COc1cc(OC)c2sc(-c3ccc(-n4cncc4-c4cc(OC)c(OC)c(OC)c4)cc3)nc2c1	>	100
Cn1cc(-c2csc(-c3cn(C)c4ccc(F)cc34)n2)c2cnccc21	=	3.53
O=C(NNc1cnccn1)c1nc2cc(F)ccc2n2cccc12	=	3.03
O=C(N/N=C/c1ccc(O)cc1O)c1cccnc1	=	11.8

* * *

test system: SR leukemia; assay: NCI tumour cell line growth inhibition, 48 h

SMILES_ENTRY	RELATION_QUALIFIER	TGI, µM
Cc1ccc(-c2nc3ccc(C(=O)N=Nc4c(O)[nH]c5ccc(Cl)cc45)cc3[nH]2)cc1	>	100
CC(C)C[C@H](NC(=O)CNC(=O)C[C@H]1O[C@@H]2OC3(C)CC[C@H]4[C@H](C)CC[C@@H]([C@H]1C)[C@@]24OO3)B(O)O	=	0.805
O=C(/C=C/c1ccc(F)cc1)c1nc2ccccc2n1Cc1ccc(F)cc1	=	6.01
Cn1cc(-c2cc(N)n3nc(-c4c[nH]c5ccc(Br)cc45)cc3n2)c2cc(Br)cnc21	=	5.87

* * *

test system: MDA-MB-468 breast; assay: NCI tumour cell line growth inhibition, 48 h; in the data active = GI50 below about 0.43 µM; inactive = the rest
Possible outcomes: active, inactive

MOLECULE	CLASSIFICATION
Oc1ccc(Oc2cnc3ccccc3n2)cc1	inactive
Cc1cc(NCCCCNc2ccnc3cc(Cl)ccc23)nc(Nc2ccc(C(=O)N3CCCCC3)cc2)n1	inactive
COc1ccc(-c2ccc(NNC(=O)c3ccc(F)cc3)nn2)cc1OC	inactive
CNCCn1c(=O)c2cc(OC)c(OC)cc2c2cnc3cc4c(cc3c21)OCO4	active
c1ccc2c(c1)c1ccccc1c1ccccc21	inactive
O=C(NNc1cnccn1)c1nc2cc(F)ccc2n2cccc12	active
CCOC(=O)C1=C(N)Oc2c(sc3c(C)cccc23)C1c1ccc(F)cc1 (stereo not given)	inactive
NCCCOc1cc2ccccc2cc1C(=O)NCCCOc1cc2ccccc2cc1C(=O)Nc1ccc(Cl)cc1O	active
COc1ccc2c(c1)C(C)Cc1c(ncnc1-n1cnc3ccccc31)N2C (stereo not given)	active
Oc1ccc(N=Nc2nccs2)c(O)c1	inactive

* * *

Overview of recorded TGI for various compounds
tested on: BT-549 breast; assay: NCI tumour cell line growth inhibition, 48 h

SMILES_ENTRY	SYSTEM_NAME	RELATION_QUALIFIER	TGI, µM
CC(C)C[C@H](NC(=O)CNC(=O)C[C@H]1O[C@@H]2OC3(C)CC[C@H]4[C@H](C)CC[C@@H]([C@H]1C)[C@@]24OO3)B(O)O	BT-549 breast	=	1.22
O=C(/C=C/c1ccc(F)cc1)c1nc2ccccc2n1Cc1ccc(F)cc1	BT-549 breast	=	8.56
Cc1ccc(-c2nc3ccc(C(=O)N=Nc4c(O)[nH]c5ccc(Cl)cc45)cc3[nH]2)cc1	BT-549 breast	>	100
Cn1cc(-c2cc(N)n3nc(-c4c[nH]c5ccc(Br)cc45)cc3n2)c2cc(Br)cnc21	BT-549 breast	=	4.36
